tested on: NCI-H23 lung; experiment: NCI tumour cell line growth inhibition, 48 h
Where a SMILES comes first, the peptide text is derived from it. [ ]: non-standard residue; d: D form. The star is where a group is joined. Bn2Val = CC(C)[C@@H](C(=O)*)N(Cc1ccccc1)Cc1ccccc1; NH(4-Cl-benzyl) = Clc1ccc(CN*)cc1; NMeV = CN[C@H](C(=O)O)C(C)C; dNMeA = CN[C@H](C)C(=O)O
Entries and their TGI values follow.
QUANTITY KIND: TGI

[[record]]
compound = "CC(C)(C)CC(C)(C)c1cc(O)c(O)c(CN2CCCCC2)c1"
result = "29.6 µM"

[[record]]
compound = "COc1cc2c(cc1O)CC1c3c(cc(O)c(OC)c3-2)CCN1C (configuration not stated)"
result = "> 100 µM"

[[record]]
compound = "CN1CCc2c1nc(-c1ccc(Cl)cc1)c1c2N(C)CC1"
result = "49.9 µM"

[[record]]
compound = "C#Cc1c(C)c(/C=C/C(C)=C/C(=O)OC)n(C)c1C"
result = "> 100 µM"

[[record]]
compound = "C1=C2CCCC3=Cc4ccccc4OC23Oc2ccccc21"
result = "> 100 µM"

[[record]]
compound = "CN1C(=O)C(O)C[C@@H]1c1ccccc1 (some centres not stated)"
result = "> 100 µM"

[[record]]
compound = "O=C(N/N=C/C=C/c1ccccc1)c1ccccc1Nc1ccccc1C(=O)N/N=C/C=C/c1ccccc1"
result = "> 100 µM"

[[record]]
compound = "O=C(Cc1ccc(Cl)c(Cl)c1)NCC1(N2CCCCC2)CCCCC1"
result = "> 100 µM"

[[record]]
compound = "C/C(=N\\Nc1nc2cc(C(F)(F)F)ccc2s1)c1ccccn1"
result = "6.74 µM"

[[record]]
compound = "Nc1nc(Cl)cc(NC23CC4CC(CC(C4)C2)C3)n1"
result = "> 100 µM"

[[record]]
compound = "COc1cc(C2C3=C(COC3=O)Oc3cc4c(cc32)OCO4)cc(OC)c1O (configuration not stated)"
result = "1.81 µM"

[[record]]
compound = "CC1(C)CC2(CC(C)(C)N1O)NC(=O)OC2=O"
result = "> 100 µM"

[[record]]
compound = "CC(C)C(C/C=C1\\CC(CO)(COC(=O)C2CCCCC2)OC1=O)C(C)C (configuration not stated)"
result = "40.2 µM"

[[record]]
compound = "C#CCn1c(=O)c(C)cn(/C(=C\\C(=O)OCC)C(=O)OCC)c1=O"
result = "27.3 µM"

[[record]]
compound = "O=C(Oc1ccc(CO[N+](=O)[O-])cc1)c1ccccc1"
result = "1.43 µM"

[[record]]
compound = "Cc1cc(=O)[nH]c(NN2C(Cl)C(=O)C2c2ccc([N+](=O)[O-])cc2)n1 (configuration not stated)"
result = "26.1 µM"

[[record]]
compound = "NCC(O)CSCc1ccc(Cl)cc1 (configuration not stated)"
result = "> 100 µM"

[[record]]
compound = "CC(C)(C)OC(=O)NCC(CNC(=O)OC(C)(C)C)c1nc(C(N)=O)cs1"
result = "> 100 µM"

[[record]]
compound = "CC1(C)CC(=O)C2(CC(CSc3ccccc3)C(CS(=O)(=O)c3ccccc3)C2)C(=O)C1 (configuration not stated)"
result = "> 100 µM"

[[record]]
compound = "CC(Oc1ccccc1Cl)C(=O)NN1C(=O)CSC1c1ccccc1 (configuration not stated)"
result = "> 100 µM"

[[record]]
compound = "CC1=Cc2ccc(C)cc2C(=O)C1=O"
result = "45.3 µM"

[[record]]
compound = "C=CC(=O)Nc1cc(N2CCN(CC)CC2)ccc1Nc1cc(N(C)C(=O)Nc2c(Cl)c(OC)cc(OC)c2Cl)ncn1"
result = "20 µM"

[[record]]
compound = "O=C(CCN1CCN2c3ccccc3CCC2C1)c1ccc(F)cc1 (configuration not stated)"
result = "> 100 µM"

[[record]]
compound = "Cc1cccc(C)c1NC(=O)CCc1nc(=S)[nH][nH]1"
result = "> 100 µM"

[[record]]
compound = "Cc1ccc(N=Nc2c(O)ccc3ccccc23)cc1"
result = "> 100 µM"

[[record]]
compound = "O=C1CC(c2[nH]nc3ccccc23)C(=O)N1c1ccccc1 (configuration not stated)"
result = "> 100 µM"

[[record]]
compound = "COc1ccc(/C(Cl)=C/c2cc(OC)ccc2OC)cc1"
result = "> 100 µM"

[[record]]
compound = "NNC(=O)C1(NC(=O)c2ccccc2)C(c2ccccc2)C(c2ccccc2)=NN1c1ccccc1 (configuration not stated)"
result = "> 100 µM"

[[record]]
compound = "CCOC(=O)c1cc2c([N+](=O)[O-])c(N)ccc2s1"
result = "> 100 µM"

[[record]]
compound = "CC(C)[C@H](NC(=O)[C@H](C(C)C)N(Cc1ccccc1)Cc1ccccc1)C(=O)N(C)[C@H](C(=O)N1CCC[C@H]1C(=O)N(C)[C@H](C)C(=O)NCc1ccc(Cl)cc1)C(C)C (Bn2Val-V[NMeV]P[dNMeA]-{NH(4-Cl-benzyl)})"
result = "28.6 µM"

[[record]]
compound = "CCOC(=O)Nn1c(CC#N)nnc1Cc1ccccc1"
result = "> 100 µM"

[[record]]
compound = "Cc1c(C(=O)OCc2ccccc2)[n+](=O)c2cc(Cl)c(Cl)cc2n1[O-]"
result = "32.5 µM"

[[record]]
compound = "Cc1cc(N(CCC#N)CCC#N)ccc1N=Nc1ccc(Br)cc1"
result = "> 51.3 µM"

[[record]]
compound = "O=C(O)COc1cc(-c2ccccc2)nc2cc(F)ccc12"
result = "> 100 µM"

[[record]]
compound = "NCCOCCOCCNc1nc(-c2ccc(Cl)cc2)nc(N2CCN(c3ccccn3)CC2)n1"
result = "3.83 µM"

[[record]]
compound = "O=c1/c(=C\\c2ccc(F)cc2)sc2n1C(c1ccc(F)cc1)C1=C(N=2)c2ccc3ccccc3c2OCC1 (configuration not stated)"
result = "> 100 µM"

[[record]]
compound = "Cc1ccc(S(=O)CC(CF)OCn2cc(C)c(=O)[nH]c2=O)cc1 (configuration not stated)"
result = "> 100 µM"

[[record]]
compound = "O=P1(S)OC[C@H]2O[C@@H]3[C@H](F)[C@@H]2OP(O)(=S)OC[C@H]2O[C@H]([C@H](F)[C@@H]2O1)n1cnc2c(ncnc21)NC/C=C/CNc1ncnc2c1ncn23 (some centres not stated)"
result = "> 100 µM"

[[record]]
compound = "Cc1c2c(c(C)c3c4c(oc13)CCCC4)C=NCC2"
result = "31.9 µM"

[[record]]
compound = "C=CCOn1c(C=C)nc2ccc(C)cc21"
result = "46 µM"

[[record]]
compound = "O=S(=O)(NCn1ccc2ccccc21)c1ccccc1"
result = "> 100 µM"

[[record]]
compound = "C=CCC1=C(C)C[C@@H]2CCC(=O)C=C12"
result = "> 100 µM"

